Tested on: HCC-2998 colon
Assay: NCI-60 one-dose screen, 48 h (100 = growth as untreated, 0 = no growth, -100 = all killed)
Conditions: 10 µM unless noted
Compounds without any hit were thinned out: in the full panel of roughly 83,000, 20% have a hit.
Please go through the items and note down their growth.
One number for each entry, in %.

These recorded examples may help you get a feel for the data.
C/C(Cc1ccc(Cl)cc1)=C(/c1ccc(Cl)cc1)c1ccc(OCCN2CCCC2)cc1
68.7
Cc1cc(N2CCN(C)CC2)nc(N(CCNc2ccnc3cc(Cl)ccc23)Cc2ccco2)n1
92.7
N=C(N)c1ccc(-c2ccc(-c3cc(F)cc(F)c3)o2)nc1
96.5
COc1cc2c(cc1-c1c(C)noc1C)ncc1nc(C3CCCCC3)n([C@@H](C)COC(F)F)c12
50.5
N#C/C(=C\c1ccc(-c2ccc(Br)cc2)o1)c1nc(-c2ccco2)cs1
34.1

Answer for every listed entry: what is its growth? The entries follow.
1. C=C(C)[C@@H]1CC[C@]2(C(=O)N3CCN(C)CC3)CC[C@]3(C)[C@H](CC[C@@H]4[C@@]5(C)C/C(=C/c6ccc(C(F)(F)F)cc6)C(=O)C(C)(C)[C@@H]5CC[C@]43C)[C@@H]12
2. O=C(O[C@@H]1Cc2c(O)cc(O)cc2O[C@@H]1c1cc(O)c(O)c(O)c1)c1cc(O)c2c(c1)OCO2
3. CC(C)(C)c1nc(-c2ccc(O)c(O)c2)cs1

107
104
86.1
